FYI, the data here is from patent US20250304550A1.

# measurementTarget: BRD3-BD1 (Homo sapiens (Human))
# Sequence (Q15059 34-140): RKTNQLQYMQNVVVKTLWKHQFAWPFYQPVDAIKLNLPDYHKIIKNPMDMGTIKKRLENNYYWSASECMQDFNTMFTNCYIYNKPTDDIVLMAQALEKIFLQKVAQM
# assaySummary: BromoKdELECT assay
pIC50: −log10 of the molar value.

{"compound": "CNC(=O)[C@@H](CC1CCN(C(=O)Cc2ccc3[nH]c(=O)cc(C)c3c2)CC1)NC(=O)c1ccc(-c2ccc(C)cc2C)cn1 [Compound 2]", "pIC50": 9.89}

====

Listed next: entries and their corresponding pIC50.
# measurementTarget: BRD4-BD1 (Homo sapiens (Human))
# assaySummary: AlphaScreen bromodomain proximity assay (biotinylated JQ1 competition)
# Format: binding
# conditionDescription: AlphaScreen
pIC50: −log10 of the molar value.

{"compound": "Cc1ccc(-c2ccc(C(=O)NCCC3CCN(C(=O)Cc4ccc5[nH]c(=O)cc(C)c5c4)CC3)nc2)c(C)c1 [Compound 15]", "pIC50": 7.56}
{"compound": "Cc1cc(=O)[nH]c2ccc(CC(=O)N3CCC(CCNC(=O)c4cc5ccccc5cn4)CC3)cc12 [Compound 19]", "pIC50": 6.92}
{"compound": "CNC(=O)[C@@H](CC1CCN(C(=O)Cc2ccc3[nH]c(=O)ccc3c2)CC1)NC(=O)c1ccc(-c2ccccc2)cn1 [Compound 10]", "pIC50": 8.15}
{"compound": "Cc1cc(=O)[nH]c2ccc(CC(=O)N3CCC(CCNC(=O)c4ccccn4)CC3)cc12 [Compound 16]", "pIC50": 7.86}
{"compound": "CNC(=O)C(CC1CCN(C(=O)Cc2ccc3[nH]c(=O)cc(C)c3c2)CC1)NC(=O)c1ccc(C(F)(F)F)cn1 (stereo not shown) [Compound 12]", "pIC50": 8.16}
{"compound": "CNC(=O)C(CC1CCN(C(=O)Cc2ccc3[nH]c(=O)cc(C)c3c2)CC1)NC(=O)c1ccccn1 (stereo not shown) [Compound 11]", "pIC50": 7.80}
{"compound": "Cc1cc(=O)[nH]c2ccc(CC(=O)N3CCN(CCNC(=O)c4ccccn4)CC3)cc12 [Compound 21]", "pIC50": 5.89}

====

# measurementTarget: BRD4-BD2 (Homo sapiens (Human))
# assaySummary: AlphaScreen bromodomain proximity assay (biotinylated JQ1 competition)
# conditionDescription: in Table 4 '—' = not efficient
attributeMeasured: IC50 (µM)

{"molecule": "Cc1ccc(-c2ccc(C(=O)NC(C)CC3CCN(C(=O)Cc4ccc5[nH]c(=O)cc(C)c5c4)CC3)nc2)c(C)c1 (stereo not shown) [Compound 14]", "measurementTarget": "BRD4-BD2 (Homo sapiens (Human))", "attributeMeasured": "IC50", "measured": 20}
{"molecule": "CNC(=O)C(CC1CCN(C(=O)Cc2ccc3[nH]c(=O)cc(C)c3c2)CC1)NC(=O)c1ccccn1 (stereo not shown) [Compound 11]", "measurementTarget": "BRD4-BD2 (Homo sapiens (Human))", "attributeMeasured": "IC50", "measured": 32.6}
{"molecule": "CNC(=O)[C@@H](CC1CCN(C(=O)Cc2ccc3[nH]c(=O)cc(C)c3c2)CC1)NC(=O)c1ccc(-c2ccc(Cl)cc2)cn1 [Compound 8]", "measurementTarget": "BRD4-BD2 (Homo sapiens (Human))", "attributeMeasured": "IC50", "measured": 19.9}
{"molecule": "Cc1cc(=O)[nH]c2ccc(CC(=O)N3CCC(CCNC(=O)c4ccccn4)CC3)cc12 [Compound 16]", "measurementTarget": "BRD4-BD2 (Homo sapiens (Human))", "attributeMeasured": "IC50", "measured": 75.2}

====

# measurementTarget: BRD4-BD1 (Homo sapiens (Human), UniProt O60885)
# assaySummary: AlphaScreen bromodomain proximity assay (biotinylated JQ1 competition)
# Format: binding
# conditionDescription: BD1 selectivity, AlphaScreen IC50 ratio
attributeMeasured: BRD4-BD1 vs. BRD4-BD2 fold

{"molecule": "CNC(=O)C(CC1CCN(C(=O)Cc2ccc3[nH]c(=O)cc(C)c3c2)CC1)NC(=O)c1ccccn1 (centres unmarked)", "measured": "2,078 fold"}
{"molecule": "Cc1cc(=O)[nH]c2ccc(CC(=O)N3CCC(CCNC(=O)c4ccccn4)CC3)cc12", "measured": "5,449 fold"}
{"molecule": "Cc1ccc(-c2ccc(C(=O)NC(C)CC3CCN(C(=O)Cc4ccc5[nH]c(=O)cc(C)c5c4)CC3)nc2)c(C)c1 (centres unmarked)", "measured": "381 fold"}
{"molecule": "CNC(=O)[C@@H](CC1CCN(C(=O)Cc2ccc3[nH]c(=O)cc(C)c3c2)CC1)NC(=O)c1ccc(-c2ccc(Cl)cc2)cn1", "measured": "1,553 fold"}
{"molecule": "CNC(=O)[C@@H](CC1CCN(C(=O)Cc2ccc3[nH]c(=O)ccc3c2)CC1)NC(=O)c1ccc(-c2ccccc2)cn1", "measured": "2,352 fold"}
{"molecule": "Cc1ccc(-c2ccc(C(=O)NCCC3CCN(C(=O)Cc4ccc5[nH]c(=O)cc(C)c5c4)CC3)nc2)c(C)c1", "measured": "312 fold"}
{"molecule": "CNC(=O)C(CC1CCN(C(=O)Cc2ccc3[nH]c(=O)cc(C)c3c2)CC1)NC(=O)c1ccc(C(F)(F)F)cn1 (centres unmarked)", "measured": "1,275 fold"}
{"molecule": "CNC(=O)[C@@H](CC1CCN(C(=O)Cc2ccc3[nH]c(=O)cc(C)c3c2)CC1)NC(=O)c1ccc(-c2ccc(Cl)c(F)c2)cn1", "measured": "1,423 fold"}

====

# measurementTarget: BRD4-BD2 (Homo sapiens (Human), UniProt O60885)
# assaySummary: AlphaScreen bromodomain proximity assay (biotinylated JQ1 competition)
# conditionDescription: in Table 4 '—' = not efficient
Attribute: IC50

{"molecule": "CNC(=O)[C@@H](CC1CCN(C(=O)Cc2ccc3[nH]c(=O)cc(C)c3c2)CC1)NC(=O)c1ccc(-c2ccc(Cl)c(F)c2)cn1", "measurementTarget": "BRD4-BD2 (Homo sapiens (Human), UniProt O60885)", "IC50 [µM]": 14}
{"molecule": "Cc1ccc(-c2ccc(C(=O)NCCC3CCN(C(=O)Cc4ccc5[nH]c(=O)cc(C)c5c4)CC3)nc2)c(C)c1", "measurementTarget": "BRD4-BD2 (Homo sapiens (Human), UniProt O60885)", "IC50 [µM]": 8.69}
{"molecule": "CNC(=O)C(CC1CCN(C(=O)Cc2ccc3[nH]c(=O)cc(C)c3c2)CC1)NC(=O)c1ccc(C(F)(F)F)cn1 (stereo not shown)", "measurementTarget": "BRD4-BD2 (Homo sapiens (Human), UniProt O60885)", "IC50 [µM]": 8.8}
{"molecule": "CNC(=O)[C@@H](CC1CCN(C(=O)Cc2ccc3[nH]c(=O)ccc3c2)CC1)NC(=O)c1ccc(-c2ccccc2)cn1", "measurementTarget": "BRD4-BD2 (Homo sapiens (Human), UniProt O60885)", "IC50 [µM]": 16.7}

====

# measurementTarget: BRD4-BD1 (Homo sapiens (Human), UniProt O60885)
# assaySummary: AlphaScreen bromodomain proximity assay (biotinylated JQ1 competition)
# Format: binding
# conditionDescription: AlphaScreen
pIC50: −log10 of the molar value.
Rule: pIC50 under 7 gives 0 (no), otherwise 1 (yes).

{"molecule": "Cc1cc(=O)[nH]c2ccc(CC(=O)N3CCC(CCNC(=O)c4ccccc4)CC3)cc12", "measurementTarget": "BRD4-BD1 (Homo sapiens (Human), UniProt O60885)", "cat": "1 (yes)"}
{"molecule": "CNC(=O)[C@H](CC1CCN(C(=O)Cc2ccc3[nH]c(=O)cc(C)c3c2)CC1)NC(=O)c1ccc(C(F)(F)F)cn1", "measurementTarget": "BRD4-BD1 (Homo sapiens (Human), UniProt O60885)", "cat": "1 (yes)"}
{"molecule": "Cc1ccc(-c2ccc(C(=O)NC(C)CC3CCN(C(=O)Cc4ccc5[nH]c(=O)cc(C)c5c4)CC3)nc2)c(C)c1 (stereo not shown)", "measurementTarget": "BRD4-BD1 (Homo sapiens (Human), UniProt O60885)", "cat": "1 (yes)"}
{"molecule": "CNC(=O)[C@@H](CC1CCN(C(=O)Cc2ccc3[nH]c(=O)cc(C)c3c2)CC1)NC(=O)c1ccc(-c2ccc(Cl)cc2)cn1", "measurementTarget": "BRD4-BD1 (Homo sapiens (Human), UniProt O60885)", "cat": "1 (yes)"}
{"molecule": "Cc1cc(=O)[nH]c2ccc(CC(=O)N3CCC(CCNC(=O)c4nccc5ccccc45)CC3)cc12", "measurementTarget": "BRD4-BD1 (Homo sapiens (Human), UniProt O60885)", "cat": "0 (no)"}
{"molecule": "CNC(=O)[C@@H](CC1CCN(C(=O)Cc2ccc3[nH]c(=O)cc(C)c3c2)CC1)NC(=O)c1ccc(-c2ccc(Cl)c(F)c2)cn1", "measurementTarget": "BRD4-BD1 (Homo sapiens (Human), UniProt O60885)", "cat": "1 (yes)"}

====

# measurementTarget: BRDT-BD1 (Homo sapiens (Human), UniProt Q58F21)
# assaySummary: AlphaScreen bromodomain proximity assay (biotinylated JQ1 competition)
# Type: binding
# conditionDescription: AlphaScreen
pIC50: −log10 of the molar value.
Examples of compounds with documented pIC50 follow.
attributeMeasured: pIC50

{"compound": "Cc1ccc(-c2ccc(C(=O)NC(C)CC3CCN(C(=O)Cc4ccc5[nH]c(=O)cc(C)c5c4)CC3)nc2)c(C)c1 (centres unmarked)", "attributeMeasured": "pIC50", "measured": 7.51}
{"compound": "CNC(=O)C(CC1CCN(C(=O)Cc2ccc3[nH]c(=O)cc(C)c3c2)CC1)NC(=O)c1ccc(C(F)(F)F)cn1 (centres unmarked)", "attributeMeasured": "pIC50", "measured": 7.85}
{"compound": "CNC(=O)[C@@H](CC1CCN(C(=O)Cc2ccc3[nH]c(=O)cc(C)c3c2)CC1)NC(=O)c1ccc(-c2ccc(Cl)c(F)c2)cn1", "attributeMeasured": "pIC50", "measured": 8.33}
{"compound": "CNC(=O)[C@@H](CC1CCN(C(=O)Cc2ccc3[nH]c(=O)cc(C)c3c2)CC1)NC(=O)c1ccc(-c2ccc(C)cc2C)cn1", "attributeMeasured": "pIC50", "measured": 8.68}
{"compound": "CNC(=O)C(CC1CCN(C(=O)Cc2ccc3[nH]c(=O)cc(C)c3c2)CC1)NC(=O)c1ccccn1 (centres unmarked)", "attributeMeasured": "pIC50", "measured": 7.69}
{"compound": "CNC(=O)[C@@H](CC1CCN(C(=O)Cc2ccc3[nH]c(=O)ccc3c2)CC1)NC(=O)c1ccc(-c2ccccc2)cn1", "attributeMeasured": "pIC50", "measured": 8.27}
{"compound": "Cc1cc(=O)[nH]c2ccc(CC(=O)N3CCC(CCNC(=O)c4ccccn4)CC3)cc12", "attributeMeasured": "pIC50", "measured": 7.45}
{"compound": "Cc1cc(=O)[nH]c2ccc(CC(=O)N3CCC(CCNC(=O)c4cc5ccccc5cn4)CC3)cc12", "attributeMeasured": "pIC50", "measured": 6.94}
{"compound": "CNC(=O)[C@@H](CC1CCN(C(=O)Cc2ccc3[nH]c(=O)cc(C)c3c2)CC1)NC(=O)c1ccc(-c2ccc(Cl)cc2)cn1", "attributeMeasured": "pIC50", "measured": 8.29}
{"compound": "Cc1cc(=O)[nH]c2ccc(CC(=O)N3CCN(CCNC(=O)c4ccccn4)CC3)cc12", "attributeMeasured": "pIC50", "measured": 5.28}
{"compound": "Cc1cc(=O)[nH]c2ccc(CC(=O)N3CCC(CCNC(=O)c4ccccc4)CC3)cc12", "attributeMeasured": "pIC50", "measured": 6.83}
{"compound": "Cc1cc(=O)[nH]c2ccc(CC(=O)N3CCC(CCNC(=O)c4ccc5ccccc5n4)CC3)cc12", "attributeMeasured": "pIC50", "measured": 7.09}
{"compound": "CNC(=O)[C@H](CC1CCN(C(=O)Cc2ccc3[nH]c(=O)cc(C)c3c2)CC1)NC(=O)c1ccc(-c2ccc(C)cc2C)cn1", "attributeMeasured": "pIC50", "measured": 7.02}
{"compound": "Cc1ccc(-c2ccc(C(=O)NCCC3CCN(C(=O)Cc4ccc5[nH]c(=O)cc(C)c5c4)CC3)nc2)c(C)c1", "attributeMeasured": "pIC50", "measured": 7.47}
{"compound": "CNC(=O)C(CC1CCN(C(=O)Cc2ccc3[nH]c(=O)cc(C)c3c2)CC1)NC(=O)c1ccc(-c2ccc(C)cc2C)cn1 (centres unmarked)", "attributeMeasured": "pIC50", "measured": 8.24}
{"compound": "CNC(=O)[C@H](CC1CCN(C(=O)Cc2ccc3[nH]c(=O)cc(C)c3c2)CC1)NC(=O)c1ccc(C(F)(F)F)cn1", "attributeMeasured": "pIC50", "measured": 8.42}
{"compound": "Cc1cc(=O)[nH]c2ccc(CC(=O)N3CCC(CCNC(=O)c4nccc5ccccc45)CC3)cc12", "attributeMeasured": "pIC50", "measured": 6.20}
